target_entity: T1, Human PD-L2-Fc (Homo sapiens, UniProt Q9BQ51)
T1 construct: Antigen in Octet IgG KD Human PD-L2-Fc (M) Avid
T1 sequence (PD-L2-Fc fusion chain, looked up): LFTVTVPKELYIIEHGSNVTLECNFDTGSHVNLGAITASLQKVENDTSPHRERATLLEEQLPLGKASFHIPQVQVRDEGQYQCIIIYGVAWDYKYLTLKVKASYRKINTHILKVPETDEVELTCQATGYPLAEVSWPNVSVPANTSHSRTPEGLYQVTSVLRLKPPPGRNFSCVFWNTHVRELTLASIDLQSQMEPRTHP
protocol_details: Octet, IgG KD, avid format, human PD-L2-Fc
observable: Kd (nM)
Answers are plain numbers, in nM.

Example entries and their recorded answers appear below.
binder: ADI-37464 (antibody, V domains shown) VH: QVQLQQWGAGLLKPSETLSLTCAVYGGSLSGYPWSWIRQPPGKGLEWIGETDVSGWTDYNPSLKSRVTISVDTSKNQFSLKLSSVTAADTAVYYCARDGRRMGTPSFDIWGQGTMVTVSS VL: DIQMTQSPSSVSASVGDRVTITCRASQGINSFLAWYQQKPGKAPKLLIYAASSLNSGVPSRFSGSGSGTDFTLTISSLQPEDFATYYCQKAVYFPPTFGGGTKVEIKR
observable: Kd
experimental_result: 0.426
--
binder: ADI-38002 (antibody, human IgG1, kappa, V domains shown, Human IgG1 (GASDIE); Some in vivo work used a mouse IgG2a form; also called Ab-38002; test antibody 38002) VH: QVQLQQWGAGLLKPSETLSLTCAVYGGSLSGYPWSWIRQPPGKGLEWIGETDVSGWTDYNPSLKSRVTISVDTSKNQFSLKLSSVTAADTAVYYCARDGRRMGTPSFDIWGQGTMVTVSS VL: DIQMTQSPSSVSASVGDRVTITCRASQDINSFLAWYQQKPGKAPKLLIYAASSLNSGVPSRFSGSGSGTDFTLTISSLQPEDFATYYCQKSVYFPPTFGGGTKVEIKR
observable: Kd
experimental_result: 0.601
--
binder: ADI-38003 (antibody, V domains shown) VH: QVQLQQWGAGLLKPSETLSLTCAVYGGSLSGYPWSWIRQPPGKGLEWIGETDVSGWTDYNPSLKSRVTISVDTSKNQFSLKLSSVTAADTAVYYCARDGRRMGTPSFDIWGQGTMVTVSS VL: DIQMTQSPSSVSASVGDRVTITCRASKGISSFLAWYQQKPGKAPKLLIYAASSLNSGVPSRFSGSGSGTDFTLTISSLQPEDFATYYCQKAVYFPPTFGGGTKVEIKR
observable: Kd
experimental_result: 0.377

Query :: Given ADI-38004 (antibody, V domains shown) VH: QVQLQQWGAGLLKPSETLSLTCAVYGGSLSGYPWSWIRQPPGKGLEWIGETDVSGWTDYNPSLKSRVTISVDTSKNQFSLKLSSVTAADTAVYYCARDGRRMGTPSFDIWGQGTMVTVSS VL: DIQMTQSPSSVSASVGDRVTITCRASQGISSFLAWYQQKPGKAPKLLIYAASSLNSGVPSRFSGSGSGTDFTLTISSLQPEDFATYYCQSAVYFPPTFGGGTKVEIKR , state its recorded Kd.
Result :: 0.597
